run description: Solubility of the compound in FaSSIF
Type: physicochemical
endpoint: solubility (µg/mL)

[P] CC(C)(O)[C@H]1CC[C@H](NC(=O)N2CCc3c(cnn3-c3cccc(F)c3)C2)CC1
[Q] CC(C)(O)[C@@H]1CC[C@@H](NC(=O)c2ccc3nc(-c4ccccc4)cn3c2)CO1
Inquiry: Which entry shows the lesser value of solubility here, P or Q ? Indicate your choice by writing its label.
Reply text: P

[I] CC(C)(O)[C@H]1CC[C@H](CNC(=O)N2CCc3c(cnn3-c3cccc(F)c3)C2)CC1
[II] CC(C)(C)OC(=O)N1CCC(NC(=O)N2CCc3c(cnn3-c3cccc(F)c3)C2)CC1
[III] CC(C)(O)[C@H]1CC[C@H](NC(=O)N2CCc3c(cnn3-c3ccccc3F)C2)CC1
Inquiry: Which order do these items take when sorted by rising solubility? List them. Provide your answer as the labels ordered per the instruction.
Reply text: II, I, III
(II: 10 µg/mL, I: 36 µg/mL, III: 190 µg/mL)

[A] CC(C)(O)[C@H]1CC[C@H](NC(=O)c2ccc3c(ccn3-c3cccc(F)c3)c2)CC1
[B] CS(=O)(=O)N1CC(NC(=O)N2CCc3c(cnn3-c3cccc(F)c3)C2)C1
Inquiry: Identify the entry with the larger solubility. Options: A and B Indicate your choice by writing its label.
Reply text: B

[A] CCC(=O)N1CCc2c(cnn2-c2cccc(F)c2)C1
[B] CC(C)(O)[C@H]1CC[C@H](NC(=O)c2ccc3c(cnn3-c3cccc(F)c3)c2)CC1
Inquiry: Identify the entry with the larger solubility. Options: A and B Indicate your choice by writing its label.
Reply text: A
(A: 552 µg/mL, B: 11 µg/mL)
